# assay_info: Metabolic stability evaluation, liver microsome assay (RLM)
# Assay type: in vitro ADME, SD rat
# measurement_context: Sprague-Dawley, pH 7.4; rat liver microsomes 0.5 mg/mL, compound 1 μM, NADPH, 37° C.
Hi there, I'd appreciate the recorded microsomal CLint at 1 μM for every entry that follows.
# output: bare number, implied unit µL/min/mg

# query: microsomal CLint at 1 μM of entry `[2H]C([2H])([2H])Oc1ccc(CN2C3CC2CN(c2ccc(-c4cc(-c5cnn(C([2H])([2H])[2H])c5)cn5ncc(C#N)c45)cn2)C3)cn1`
49.1

# query: microsomal CLint at 1 μM of entry `[2H]C([2H])([2H])Oc1ccc(CN2C3CC2CN(c2ccc(-c4cc(OCC(C)(C)O)cn5ncc(C#N)c45)cn2)C3)cn1`
10.1

# query: microsomal CLint at 1 μM of entry `[2H]C([2H])([2H])Oc1ccc(C([2H])([2H])N2C3CC2CN(c2ccc(-c4cc(-c5cnn(C)c5)cn5ncc(C#N)c45)cn2)C3)cn1`
55.3

# query: microsomal CLint at 1 μM of entry `[2H]C([2H])(c1ccc(OC)nc1)N1C2CC1CN(c1ccc(-c3cc(-c4cnn(C([2H])([2H])[2H])c4)cn4ncc(C#N)c34)cn1)C2`
37.9

# query: microsomal CLint at 1 μM of entry `[2H]C([2H])(c1ccc(OC)nc1)N1C2CC1CN(c1ccc(-c3cc(OC[C@H]4CNCCO4)cn4ncc(C#N)c34)cn1)C2`
5.3
